Assay: self-splicing fitness, log relative to wild type (ln ratio); higher = more splicing; Tetrahymena group I intron in knt gene, E. coli kanamycin selection, DiMSum; sequences stand for … in CUCUCU…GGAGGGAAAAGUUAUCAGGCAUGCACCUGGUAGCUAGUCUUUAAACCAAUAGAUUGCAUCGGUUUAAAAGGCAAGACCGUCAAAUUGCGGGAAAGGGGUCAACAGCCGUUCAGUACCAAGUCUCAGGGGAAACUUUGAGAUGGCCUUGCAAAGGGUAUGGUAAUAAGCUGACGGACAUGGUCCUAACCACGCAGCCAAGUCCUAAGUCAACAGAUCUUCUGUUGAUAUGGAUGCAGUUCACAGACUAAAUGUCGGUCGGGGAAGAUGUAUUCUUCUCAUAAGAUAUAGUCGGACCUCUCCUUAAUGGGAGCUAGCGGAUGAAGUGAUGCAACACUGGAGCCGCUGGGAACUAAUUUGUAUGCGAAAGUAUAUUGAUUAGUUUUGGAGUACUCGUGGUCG;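 note: selection with 25 µg/mL kanamycin versus none on LB agar overnight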
Settings: 37 °C
Mark t for reported self-splicing fitness (ln) of -3 or greater; mark f for anything smaller.

Worked cases, answers included:
QUERY_SEQUENCE	GROUP
CGCUAGCAAUAUUACGAACU	t
AUACAGCAAUAUUACGAUGG	t

# input Is self-splicing fitness (ln) for `CCAAAGCAAUAUUACGUUAA` at or above -3?
# output t

# input Does the reported self-splicing fitness (ln) for `CUCUAGCAAUAUUACGGGGC` fall at or above the -3 mark?
# output t

# input Confirm if self-splicing fitness (ln) reported for the sequence `AUUUAGCAAUAUUACGGCAG` is -3 or above.
# output t

# input # bool: self-splicing fitness (ln) of `CUACAGCAAUAUUACGGGAG` >= -3
# output t
